# Test system: Cricetinae gen. sp.
# experimentNotes: Compound was tested for percent reduction of serum cholesterol absorption in cholesterol fed hamster model at an oral dose of 10 mg/kg/day
# Type: functional, Cricetulus griseus
measuredMetric: Reduction (%)
Response body: numeric value in %, unit text excluded.

Give the measured Reduction of CCN(CC)C(=O)CCc1ccc([C@@H]2[C@@H](CCCc3ccccc3)C(=O)N2c2ccc(F)cc2)cc1 .
0

Give the measured Reduction of CCN(CC)C(=O)Cc1ccc([C@@H]2[C@@H](CCCc3ccccc3)C(=O)N2c2ccc(F)cc2)cc1 .
0

Give the measured Reduction of O=C(O)CCc1ccc([C@@H]2[C@@H](CCCc3ccccc3)C(=O)N2c2ccc(F)cc2)cc1 .
-32

Give the measured Reduction of O=C(O)Cc1ccc([C@@H]2[C@@H](CCCc3ccccc3)C(=O)N2c2ccc(F)cc2)cc1 .
-44

Give the measured Reduction of COc1ccc([C@@H]2[C@@H](CCCc3ccccc3)C(=O)N2c2ccc(OC)cc2)cc1 .
-43

Give the measured Reduction of COC(=O)CCc1ccc([C@@H]2[C@@H](CCCc3ccccc3)C(=O)N2c2ccc(F)cc2)cc1 .
-26
